Tested on: follistatin
assay name: Follistatin mRNA expression in HepG2 cells
Format: cell-based, human
condition context: HepG2 cells, Experiment 1, basal (no insulin), four hours; UTC = 100
In the oligonucleotide strings, read from the 5' end, every base follows the letter of its sugar. An asterisk marks phosphorothioate; unmarked linkages are phosphodiester. Other units and linkages are bracketed, terminal groups are in braces. A string of capitals states the bases alone. e = 2'-O-(2-methoxyethyl) (MOE); [5mC] = 5-methylcytosine
Each entry below carries its recorded Follistatin mRNA.

{"columns": ["substance", "tested target", "Follistatin mRNA"],
 "data": [
  ["327920 (antisense eG*eA*eG*eA*e[5mC]*e[5mC]*e[5mC]*eA*eG*eT*eA*eG*e[5mC]*e[5mC]*eA*eG*eA*eT*eG*eT*eA*eG*e[5mC]*eT) [compound 327920]", "follistatin", 99],
  ["327959 (antisense e[5mC]*eA*eG*e[5mC]*e[5mC]*eG*e[5mC]*eT*eG*eT*e[5mC]*eA*e[5mC]*eA*e[5mC]*eG*e[5mC]*eA*e[5mC]*eA*eG) [compound 327959]", "follistatin", 98],
  ["327946 (antisense eA*eG*eG*e[5mC]*eG*eA*eA*eG*eG*eA*eT*eG*eA*e[5mC]*eA*eA*eA*eG*eG*eG*eA*eA) [compound 327946]", "follistatin", 103],
  ["327964 (antisense e[5mC]*e[5mC]*eA*eA*eG*eT*eT*e[5mC]*eT*eG*eT*e[5mC]*eA*eT*eG*e[5mC]*eA*e[5mC]*eT*eG*eA) [compound 327964]", "follistatin", 97]
]}

###

System: HeLa cells
assay name: Cell cycle assay in HeLa cells
Format: cell-based, human
condition context: HeLa cells, 150 nM oligomeric compound, 48 hours after treatment; relative to untreated control (UTC=100)
In the oligonucleotide strings, read from the 5' end, every base follows the letter of its sugar. An asterisk marks phosphorothioate; unmarked linkages are phosphodiester. Other units and linkages are bracketed, terminal groups are in braces. A string of capitals states the bases alone. e = 2'-O-(2-methoxyethyl) (MOE); [5mC] = 5-methylcytosine; d = 2'-deoxy (DNA)
Quick rule: % cells in cell cycle phase: subG1 of at least 200% means T, below that means F.

{"columns": ["substance", "category"],
 "data": [
  ["327889 (antisense eG*eT*eG*eG*eT*eA*eA*eT*e[5mC]*e[5mC]*e[5mC]*eT*eG*eG*e[5mC]*eA*eA*eT*eG*eT*eG*eA*eT) [compound 327889]", "F"],
  ["327956 (antisense e[5mC]*eA*e[5mC]*eA*eG*eT*eT*eG*e[5mC]*e[5mC]*eA*eG*e[5mC]*eT*eG*eA*eG*eA*eT*eT*eA) [compound 327956]", "F"],
  ["327911 (antisense eG*e[5mC]*eT*eA*e[5mC]*e[5mC]*eT*eG*e[5mC]*eA*e[5mC]*eT*eG*eT*eA*eA*eG*e[5mC]*eA*e[5mC]*eT*eT*eT*eT) [compound 327911]", "F"],
  ["328388 (eT*e[5mC]*e[5mC]*e[5mC]*eA*dT*dA*dG*d[5mC]*dA*dG*dG*dG*d[5mC]*dA*eG*eA*eG*e[5mC]*e[5mC]; antisense) [compound 328388]", "F"],
  ["328780 (antisense eT*eG*eT*e[5mC]*eA*dT*dG*dG*dA*d[5mC]*dA*dG*dG*dA*dT*eG*eA*eA*eT*eA) [compound 328780]", "T"],
  ["328744 (antisense e[5mC]*eG*eG*eA*eT*d[5mC]*d[5mC]*dT*dG*dT*dT*dA*d[5mC]*d[5mC]*dT*e[5mC]*eA*e[5mC]*e[5mC]*eA) [compound 328744]", "T"]
]}

###

Test system: T47D cells
assay name: Caspase-3 activity assay (apoptosis) in T47D cells
condition context: T47D cells, 200 nM oligomeric compound, 48 hours; experiment of Table 12
In the oligonucleotide strings, read from the 5' end, every base follows the letter of its sugar. An asterisk marks phosphorothioate; unmarked linkages are phosphodiester. Other units and linkages are bracketed, terminal groups are in braces. A string of capitals states the bases alone. e = 2'-O-(2-methoxyethyl) (MOE); [5mC] = 5-methylcytosine; d = 2'-deoxy (DNA)
readout name: Fold Increase over UTC (caspase-3 activity, apoptosis) (fold)

{"columns": ["substance", "tested target", "reported measurement"],
 "data": [
  ["328697 (eG*e[5mC]*eT*eT*eG*dT*d[5mC]*d[5mC]*dA*d[5mC]*dA*d[5mC]*dA*dG*dT*eT*e[5mC]*eA*eA*e[5mC]; antisense) [compound 328697]", "T47D cells", 1.0],
  ["328693 (eT*eT*eT*eG*eA*dT*dT*dT*dT*dA*dA*dT*dT*d[5mC]*d[5mC]*eA*eA*eA*e[5mC]*eT; antisense) [compound 328693]", "T47D cells", 1.0],
  ["328642 (eA*e[5mC]*eT*e[5mC]*e[5mC]*d[5mC]*dA*dG*dG*dG*dT*dG*dT*dA*dA*e[5mC]*eT*e[5mC]*eT*eA; antisense) [compound 328642]", "T47D cells", 1.0],
  ["328418 (antisense eA*eG*eT*eG*eT*d[5mC]*dT*d[5mC]*dA*dT*d[5mC]*dG*d[5mC]*dA*dA*eA*e[5mC]*eT*eT*eA) [compound 328418]", "T47D cells", 1.0]
]}

###

Tested on: differentiated adipocytes
assay name: Hallmark genes and triglycerides in differentiated adipocytes
Type: cell-based, human
condition context: Table 28; differentiated adipocytes transfected day nine post-differentiation; 250 nM oligonucleotide
Text: The effect of the oligomeric compounds of the present invention targeting miRNAs on the expression of markers of cellular differentiation was examined in differentiated adipocytes. As previously described, the HSL, aP2, Glut4, and PPARγ genes play important rolls in the uptake of glucose and the metabolism and utilization of fats. […] Oligomeric compound treatments and transfectant-only negative controls may be measured up to six times per plate. […]
In the oligonucleotide strings, read from the 5' end, every base follows the letter of its sugar. An asterisk marks phosphorothioate; unmarked linkages are phosphodiester. Other units and linkages are bracketed, terminal groups are in braces. A string of capitals states the bases alone. e = 2'-O-(2-methoxyethyl) (MOE); [5mC] = 5-methylcytosine

{"columns": ["substance", "Glut4"],
 "data": [
  ["327889 (antisense eG*eT*eG*eG*eT*eA*eA*eT*e[5mC]*e[5mC]*e[5mC]*eT*eG*eG*e[5mC]*eA*eA*eT*eG*eT*eG*eA*eT) [compound 327889]", 0.99],
  ["327954 (antisense eA*e[5mC]*eA*eA*eA*eG*eT*eT*e[5mC]*eT*eG*eT*eG*eA*eT*eG*e[5mC]*eA*e[5mC]*eT*eG*eA) [compound 327954]", 0.61],
  ["327922 (antisense eT*e[5mC]*eA*eG*eT*eT*eT*eT*eG*e[5mC]*eA*eT*eG*eG*eA*eT*eT*eT*eG*e[5mC]*eA*e[5mC]*eA) [compound 327922]", 0.61]
]}

###

Test system: HeLa cells
assay name: Cell cycle assay in HeLa cells
Assay type: cell-based, human
condition context: HeLa cells, 150 nM oligomeric compound, 24 hours, relative to untreated control (UTC = 100)
In the oligonucleotide strings, read from the 5' end, every base follows the letter of its sugar. An asterisk marks phosphorothioate; unmarked linkages are phosphodiester. Other units and linkages are bracketed, terminal groups are in braces. A string of capitals states the bases alone. e = 2'-O-(2-methoxyethyl) (MOE); [5mC] = 5-methylcytosine; d = 2'-deoxy (DNA)
Each entry below carries its recorded % cells in cell cycle phase G2/M.

{"columns": ["substance", "% cells in cell cycle phase G2/M / %"],
 "data": [
  ["328674 (eT*eG*e[5mC]*e[5mC]*e[5mC]*dT*dG*d[5mC]*dT*d[5mC]*dA*dG*dA*dG*d[5mC]*e[5mC]*e[5mC]*eT*eA*eG; antisense) [compound 328674]", 84],
  ["338769 (antisense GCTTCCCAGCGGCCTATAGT; all 2'-MOE, all phosphorothioate, methylation of C not given here) [compound 338769]", 103],
  ["328388 (eT*e[5mC]*e[5mC]*e[5mC]*eA*dT*dA*dG*d[5mC]*dA*dG*dG*dG*d[5mC]*dA*eG*eA*eG*e[5mC]*e[5mC]; antisense) [compound 328388]", 115]
]}

###

Each entry below carries its recorded % cells in cell cycle phase S.
Test system: HeLa cells
assay name: Cell cycle assay in HeLa cells
Assay type: cell-based, human
condition context: HeLa cells, 150 nM oligomeric compound, 24 hours, relative to untreated control (UTC = 100)
In the oligonucleotide strings, read from the 5' end, every base follows the letter of its sugar. An asterisk marks phosphorothioate; unmarked linkages are phosphodiester. Other units and linkages are bracketed, terminal groups are in braces. A string of capitals states the bases alone. e = 2'-O-(2-methoxyethyl) (MOE); [5mC] = 5-methylcytosine; d = 2'-deoxy (DNA)

{"columns": ["substance", "display unit", "% cells in cell cycle phase S"],
 "data": [
  ["338826 (antisense CGGATCCTGTTACCTCACCA; all 2'-MOE, all phosphorothioate, methylation of C not given here) [compound 338826]", "%", 79],
  ["338809 (antisense CTGCTCCAGAGCCCGAGTCG; all 2'-MOE, all phosphorothioate, methylation of C not given here) [compound 338809]", "%", 82],
  ["338797 (antisense CTGGGGAGGGGGTTAGCGTC; all 2'-MOE, all phosphorothioate, methylation of C not given here) [compound 338797]", "%", 79],
  ["341787 (antisense CACAGGTTAAAGGGTCTCAGGGA; all 2'-MOE, all phosphorothioate, methylation of C not given here) [compound 341787]", "%", 75],
  ["328337 (eG*e[5mC]*eT*eA*eG*dA*dT*dA*d[5mC]*dA*dA*dA*dG*dA*dT*eG*eG*eA*eA*eA) [compound 328337]", "%", 88],
  ["328724 (antisense eG*eA*e[5mC]*eA*eT*d[5mC]*dA*dT*dG*dT*dG*dA*dT*dT*dT*eG*e[5mC]*eT*e[5mC]*eA) [compound 328724]", "%", 90],
  ["327910 (antisense eT*eG*eA*eT*eA*eG*e[5mC]*e[5mC]*e[5mC]*eT*eG*eT*eA*e[5mC]*eA*eA*eT*eG*e[5mC]*eT*eG*e[5mC]*eT) [compound 327910]", "%", 42],
  ["338756 (antisense TGCCCTGCTCAGAGCCCTAG; all 2'-MOE, all phosphorothioate, methylation of C not given here) [compound 338756]", "%", 75],
  ["328111 (antisense eT*e[5mC]*e[5mC]*eG*eA*eG*eT*e[5mC]*eG*eG*eA*eG*eG*eA*eG*eG*eA*eG*eG*eA*eA) [compound 328111]", "%", 75],
  ["328644 (eG*eA*e[5mC]*eA*eA*dG*dG*dT*dG*dG*dG*dA*dG*d[5mC]*dG*eA*eG*eT*eG*eG; antisense) [compound 328644]", "%", 84],
  ["328342 (e[5mC]*eA*eA*eT*eT*dG*d[5mC]*dG*d[5mC]*dT*dA*d[5mC]*dA*dG*dA*eA*e[5mC]*eT*eG*eT) [compound 328342]", "%", 95],
  ["328397 (antisense eT*eT*eG*eA*eT*d[5mC]*d[5mC]*dA*dT*dA*dT*dG*d[5mC]*dA*dA*e[5mC]*eA*eA*eG*eG) [compound 328397]", "%", 86],
  ["340925 (antisense GTGGTAATCCCTGGCAATGTGAT; sugars from the 5' end e5 d10 e8, all phosphorothioate, methylation of C not given here) [compound 340925]", "%", 89],
  ["338678 (antisense CTGGTTGGGTATGAGACAGA; all 2'-MOE, all phosphorothioate, methylation of C not given here) [compound 338678]", "%", 75]
]}
